Target: WWP1 (Homo sapiens)
Construct: GST-TEV (N, cleaved yes); made in house; host or cells: Escherichia coli BL21 (DE3)
Experiment: Naive Library Presenter Screening (phage, NGS), WWP1 (construct not given)
Assay type: binding
Settings: WWP1 target concentration 10 nM
Numbered stars: 1 amine (or outer) side, 2 acyl side, 3 side chain; on linkers, the order of the positions; unused ones are H or OH. Bridge positions count the residues as written; N and C are the ends. Ends that are not written are not given here. Phenylene(1,4-NHCOCH2)2 = O=C(C[*:1])Nc1ccc(NC(=O)C[*:2])cc1
testReadout: interaction data at Target Concentration 10
Answer with a number only.

Form field: interaction data at Target Concentration 10 recorded for DPAFHYCTMAANMCHQD (linker 7-14 via Phenylene(1,4-NHCOCH2)2) with WWP1 (Homo sapiens) (enter value)
0

Form field: interaction data at Target Concentration 10 recorded for DPAIIRCTSAAMMCHNT (linker 7-14 via Phenylene(1,4-NHCOCH2)2) with WWP1 (Homo sapiens) (enter value)
0

Form field: interaction data at Target Concentration 10 recorded for DPAIFDCEFAAHVCSVL (linker 7-14 via Phenylene(1,4-NHCOCH2)2) with WWP1 (Homo sapiens) (enter value)
0

Form field: interaction data at Target Concentration 10 recorded for DPAVRDCSDAAIVCELV (linker 7-14 via Phenylene(1,4-NHCOCH2)2) with WWP1 (Homo sapiens) (enter value)
5

Form field: interaction data at Target Concentration 10 recorded for DPAWVSCVRAANLCHVS (linker 7-14 via Phenylene(1,4-NHCOCH2)2 (inferred); not fully specified (C-terminus)) with WWP1 (Homo sapiens) (enter value)
33

Form field: interaction data at Target Concentration 10 recorded for DPAWMACAWAANLCHSS (linker 7-14 via Phenylene(1,4-NHCOCH2)2) with WWP1 (Homo sapiens) (enter value)
0

Form field: interaction data at Target Concentration 10 recorded for DPARWACTEAAHVCDTL (linker 7-14 via Phenylene(1,4-NHCOCH2)2) with WWP1 (Homo sapiens) (enter value)
0

Form field: interaction data at Target Concentration 10 recorded for DPATETCAQAAVLCHSD (linker 7-14 via Phenylene(1,4-NHCOCH2)2 (inferred); not fully specified (C-terminus)) with WWP1 (Homo sapiens) (enter value)
1

Form field: interaction data at Target Concentration 10 recorded for DPAATLCNQAANVCALL (linker 7-14 via Phenylene(1,4-NHCOCH2)2) with WWP1 (Homo sapiens) (enter value)
0

Form field: interaction data at Target Concentration 10 recorded for DPAIMSCMYAAEVCRVL (linker 7-14 via Phenylene(1,4-NHCOCH2)2) with WWP1 (Homo sapiens) (enter value)
0

Form field: interaction data at Target Concentration 10 recorded for DPARLDCTAAAYVCSVL (linker 7-14 via Phenylene(1,4-NHCOCH2)2) with WWP1 (Homo sapiens) (enter value)
0

Form field: interaction data at Target Concentration 10 recorded for DPALQTCMDAAQVCRLL (linker 7-14 via Phenylene(1,4-NHCOCH2)2) with WWP1 (Homo sapiens) (enter value)
0

Form field: interaction data at Target Concentration 10 recorded for DPATMNCTLAANICHSH (linker 7-14 via Phenylene(1,4-NHCOCH2)2 (inferred); not fully specified (C-terminus)) with WWP1 (Homo sapiens) (enter value)
0

Form field: interaction data at Target Concentration 10 recorded for DPAMIACSHAAQMCHWS (linker 7-14 via Phenylene(1,4-NHCOCH2)2) with WWP1 (Homo sapiens) (enter value)
0

Form field: interaction data at Target Concentration 10 recorded for DPAMRRCHQAAWVCEVL (linker 7-14 via Phenylene(1,4-NHCOCH2)2) with WWP1 (Homo sapiens) (enter value)
0

Form field: interaction data at Target Concentration 10 recorded for DPATHVCTTAA VMCHQT (DPATHVCTTAAVMCHQT; not fully specified; cysteine pairing not given here) with WWP1 (Homo sapiens) (enter value)
0

---

Molecular target: RNF31 PUB domain (Homo sapiens)
Construct: MBP-TEV (N, cleaved yes); made in house; host or cells: E. coli BL21 (DE3) pLysS
Sequence (Q96EP0 1-179): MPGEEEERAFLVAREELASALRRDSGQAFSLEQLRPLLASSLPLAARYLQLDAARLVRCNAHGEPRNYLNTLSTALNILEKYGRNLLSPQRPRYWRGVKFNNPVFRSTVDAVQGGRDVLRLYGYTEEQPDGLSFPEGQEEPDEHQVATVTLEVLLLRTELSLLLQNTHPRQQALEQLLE
Assay: Phage Library Screening with NGS, RNF31 PUB domain
Assay type: binding
Conditions: RNF31 PUB domain clusters C41-C45; target concentration 300
Would you please tag the item true when its Phage library screen NGS readout, Target Concentration 300 is 7 or above, and false when it is below?

State whether the measured Phage library screen NGS readout, Target Concentration 300 reaches 7, counting equality as reaching it, for `DPAQEACWDAAIMCTYR`
true

State whether the measured Phage library screen NGS readout, Target Concentration 300 reaches 7, counting equality as reaching it, for DPARDWCLYAAYDCYTA (Ac-DPARDWCLYAAYDCYTA-NH2; not fully specified (bridges); cysteine pairing not given here)
true

State whether the measured Phage library screen NGS readout, Target Concentration 300 reaches 7, counting equality as reaching it, for `DPAQMECIDAAIMCSYT`
false

State whether the measured Phage library screen NGS readout, Target Concentration 300 reaches 7, counting equality as reaching it, for `DPAWLDCIYAAYDCVTD`
false

State whether the measured Phage library screen NGS readout, Target Concentration 300 reaches 7, counting equality as reaching it, for `DPAHANCQLAADVCSTY`
true

State whether the measured Phage library screen NGS readout, Target Concentration 300 reaches 7, counting equality as reaching it, for `DPAIDACYDAAVMCTYV`
false

State whether the measured Phage library screen NGS readout, Target Concentration 300 reaches 7, counting equality as reaching it, for `DPALEICWDAAIQCSYV`
true

State whether the measured Phage library screen NGS readout, Target Concentration 300 reaches 7, counting equality as reaching it, for `DPAWWNCLYAAYECNHA`
false

State whether the measured Phage library screen NGS readout, Target Concentration 300 reaches 7, counting equality as reaching it, for `DPAVVDCWDAAVQCTYY`
false

State whether the measured Phage library screen NGS readout, Target Concentration 300 reaches 7, counting equality as reaching it, for `DPAWTDCDWAALYCEFQ`
false

State whether the measured Phage library screen NGS readout, Target Concentration 300 reaches 7, counting equality as reaching it, for `DPAADQCDIAAFVCSTY`
false

State whether the measured Phage library screen NGS readout, Target Concentration 300 reaches 7, counting equality as reaching it, for `DPAWWDCMYAASHCDTV`
false

State whether the measured Phage library screen NGS readout, Target Concentration 300 reaches 7, counting equality as reaching it, for `DPAYDWCLYAAEYCHTD`
false

State whether the measured Phage library screen NGS readout, Target Concentration 300 reaches 7, counting equality as reaching it, for `DPANFTCRVAADVCSTY`
false

---

Target: CUL1 (Homo sapiens, UniProt Q13616, L371D/V367R)
Construct: CUL1 (Uniprot ID: Q13616, residue 15-410, V367R/L371D); GST-TEV (N, cleaved yes); made in house; host or cells: E. coli BL21 CodonPlus
Sequence (Q13616 15-410 V367R/L371D): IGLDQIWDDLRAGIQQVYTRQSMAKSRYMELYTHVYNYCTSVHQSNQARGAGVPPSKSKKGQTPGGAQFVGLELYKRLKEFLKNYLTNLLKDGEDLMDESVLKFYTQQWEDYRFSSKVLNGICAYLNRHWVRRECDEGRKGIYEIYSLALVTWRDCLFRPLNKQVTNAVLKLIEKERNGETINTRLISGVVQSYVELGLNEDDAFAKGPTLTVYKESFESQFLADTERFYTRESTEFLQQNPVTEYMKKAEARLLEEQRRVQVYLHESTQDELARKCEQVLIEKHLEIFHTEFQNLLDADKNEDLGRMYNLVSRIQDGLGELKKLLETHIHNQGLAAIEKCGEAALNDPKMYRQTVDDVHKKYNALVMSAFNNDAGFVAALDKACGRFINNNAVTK
Experiment: Naive Library Presenter Screening (phage, NGS), CUL1
Type: binding
Details: CUL1 target concentration 30 nM
testReadout: interaction data at Target Concentration 30
Answer with a number only.

Form field: interaction data at Target Concentration 30 recorded for `DPAQNDCEVAAFFCWLD` with CUL1 (Homo sapiens, UniProt Q13616, L371D/V367R) (enter value)
1

Form field: interaction data at Target Concentration 30 recorded for `DPAMLQCDMAALWCMVS` with CUL1 (Homo sapiens, UniProt Q13616, L371D/V367R) (enter value)
3

Form field: interaction data at Target Concentration 30 recorded for `DPAQILCDLAALYCVVE` with CUL1 (Homo sapiens, UniProt Q13616, L371D/V367R) (enter value)
7

Form field: interaction data at Target Concentration 30 recorded for `DPAIIQCDQAALWCVVT` with CUL1 (Homo sapiens, UniProt Q13616, L371D/V367R) (enter value)
0

Form field: interaction data at Target Concentration 30 recorded for `DPAEMQCDYAAILCIVR` with CUL1 (Homo sapiens, UniProt Q13616, L371D/V367R) (enter value)
0

Form field: interaction data at Target Concentration 30 recorded for `DPAEQECDHAALWCIVA` with CUL1 (Homo sapiens, UniProt Q13616, L371D/V367R) (enter value)
19

Form field: interaction data at Target Concentration 30 recorded for `DPAEVHCDMAALYCIIR` with CUL1 (Homo sapiens, UniProt Q13616, L371D/V367R) (enter value)
7

Form field: interaction data at Target Concentration 30 recorded for `DPAEAACDIAALMCIID` with CUL1 (Homo sapiens, UniProt Q13616, L371D/V367R) (enter value)
13

Form field: interaction data at Target Concentration 30 recorded for `DPAYFACDIAALMCTVH` with CUL1 (Homo sapiens, UniProt Q13616, L371D/V367R) (enter value)
2

Form field: interaction data at Target Concentration 30 recorded for `DPAYDWCDVAALFCLVE` with CUL1 (Homo sapiens, UniProt Q13616, L371D/V367R) (enter value)
0

Form field: interaction data at Target Concentration 30 recorded for `DPAEQMCDIAAVWCLAH` with CUL1 (Homo sapiens, UniProt Q13616, L371D/V367R) (enter value)
0

Form field: interaction data at Target Concentration 30 recorded for `DPAVMECDWAATICDIF` with CUL1 (Homo sapiens, UniProt Q13616, L371D/V367R) (enter value)
2

Form field: interaction data at Target Concentration 30 recorded for `DPAEFVCDWAALACLVD` with CUL1 (Homo sapiens, UniProt Q13616, L371D/V367R) (enter value)
32
